experiment: Rodent pharmacokinetic study; assay type: in vivo, Male Wistar rats; conditions: male, Wistar, plasma; rat, oral 3 mg/kg vs intravenous 1 mg/kg; read-out: F (%) Bioavailability
Recorded Endpoint: bioavailability (%)
A number alone suffices; assume %.

Consider the reported bioavailability for these molecules:
O=C(N[C@H]1CCCC[C@@H]1O)c1cc(Cc2ccc(-c3cccnc3)cc2)c2cccn2n1 (stereo in doubt) [Example 26]
71
Cn1cc(-c2ccc(Cc3cc(C(=O)NC4CCOCC4)nn4cccc34)cc2)cn1 [Example 21]
58
O=C(N[C@H]1CCCC[C@@H]1O)c1cc(Cc2ccccc2)c2cccn2n1 [Example 4]
13

Problem: Data request, read-out bioavailability, for Cn1cc(-c2ccc(Cc3cc(C(=O)NCC(C)(C)O)nn4cccc34)cc2)cn1 [Example 19]
Result: 66
